target: GBA2 (Homo sapiens, UniProt Q9HCG7); assay: 4MU fluorogenic substrate assay for apparent IC50, GBA2; assay type: biochemical; design: expressed in transfected cells; host or cells: HEK293T GBA1/GBA2 KO (CRISPR/Cas9), GBA2 overexpressed; details: 30 min pre-incubation; 4MU-β-D-Glc; read-out: Apparent IC50 GBA2
Sequence (Q9HCG7 whole entry): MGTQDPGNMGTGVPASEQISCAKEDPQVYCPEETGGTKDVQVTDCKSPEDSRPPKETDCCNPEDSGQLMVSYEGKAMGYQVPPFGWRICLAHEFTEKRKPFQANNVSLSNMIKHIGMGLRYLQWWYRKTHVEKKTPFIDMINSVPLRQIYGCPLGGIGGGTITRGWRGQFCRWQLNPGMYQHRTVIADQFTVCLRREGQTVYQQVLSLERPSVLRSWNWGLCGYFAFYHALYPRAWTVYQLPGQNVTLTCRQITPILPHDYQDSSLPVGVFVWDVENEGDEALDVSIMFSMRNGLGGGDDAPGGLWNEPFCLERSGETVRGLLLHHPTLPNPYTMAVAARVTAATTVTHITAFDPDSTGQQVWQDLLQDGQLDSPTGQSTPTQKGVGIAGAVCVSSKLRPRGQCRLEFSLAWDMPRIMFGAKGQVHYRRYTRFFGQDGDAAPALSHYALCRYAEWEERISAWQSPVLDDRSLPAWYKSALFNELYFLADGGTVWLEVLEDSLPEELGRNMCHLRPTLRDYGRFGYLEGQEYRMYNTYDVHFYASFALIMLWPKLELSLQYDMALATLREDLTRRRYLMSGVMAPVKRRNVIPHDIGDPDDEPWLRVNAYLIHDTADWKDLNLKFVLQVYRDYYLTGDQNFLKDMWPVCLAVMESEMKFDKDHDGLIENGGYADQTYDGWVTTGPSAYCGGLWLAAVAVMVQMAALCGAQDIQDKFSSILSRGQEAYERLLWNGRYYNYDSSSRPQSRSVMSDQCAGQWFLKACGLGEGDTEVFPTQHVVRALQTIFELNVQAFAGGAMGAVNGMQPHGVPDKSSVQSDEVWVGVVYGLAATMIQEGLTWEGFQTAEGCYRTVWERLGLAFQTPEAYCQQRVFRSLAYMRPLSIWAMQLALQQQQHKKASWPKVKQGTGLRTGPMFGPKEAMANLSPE
pIC50: −log10 of the molar value.
Assay metric: pIC50

q: Recorded pIC50 of OC[C@@H]1[C@@H](O)[C@H](O)[C@@H]2N[C@H]12 , please.
a: < 4.30

###

Give pIC50 for every item shown.
molecular target: GBA3 (Homo sapiens); construct: expressed in transfected cells; host or cells: HEK293T GBA1/GBA2 KO, GBA3 overexpressed; experiment: 4MU fluorogenic substrate assay for apparent IC50, GBA3; format: biochemical; conditions: GBA1/GBA2 KO GBA3 OE HEK293T cell lysate; 30 min pre-incubation; 4MU-β-D-Glc; pH 6.0; n = 3 for β-D-Araf, n = 1 for α-L-Araf and β-L-Araf
Sequence (Q9H227 whole entry): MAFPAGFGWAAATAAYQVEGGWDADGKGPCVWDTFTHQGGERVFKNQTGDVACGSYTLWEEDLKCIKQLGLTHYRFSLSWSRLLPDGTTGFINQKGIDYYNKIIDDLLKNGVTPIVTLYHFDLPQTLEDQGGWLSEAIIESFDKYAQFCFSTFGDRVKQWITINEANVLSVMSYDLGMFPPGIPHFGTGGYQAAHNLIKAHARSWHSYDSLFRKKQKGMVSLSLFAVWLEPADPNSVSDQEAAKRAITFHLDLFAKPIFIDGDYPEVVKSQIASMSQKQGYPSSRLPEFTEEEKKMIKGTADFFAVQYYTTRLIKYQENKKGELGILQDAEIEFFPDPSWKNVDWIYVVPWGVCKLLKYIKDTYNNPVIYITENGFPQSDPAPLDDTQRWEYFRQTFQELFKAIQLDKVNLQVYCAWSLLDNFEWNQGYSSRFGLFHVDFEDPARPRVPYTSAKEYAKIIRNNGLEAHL
Keep it numeric: pIC50 is minus log10 of the concentration in mol/L.

q: Suppose we examine the molecule CN1/C(=C/C=C/C=C/C2=[N+](CCCCCC(=O)NCc3cn(CCCCCCCCN4[C@@H]5[C@H](CO)[C@@H](O)[C@H](O)[C@@H]54)nn3)c3ccccc3C2(C)C)C(C)(C)c2ccccc21 (stereo partly drawn) [ABP 5] ; what pIC50 value has been reported?
a: 5.82

q: Please give the measured pIC50 for this molecule: [N-]=[N+]=NCCCCCCCCN1[C@@H]2[C@H](CO)[C@@H](O)[C@H](O)[C@@H]21 (stereo partly drawn) [Compound 2]
a: 5.09

q: I'd like to know its pIC50. The molecule in question is O=C(CCCC[C@@H]1SC[C@@H]2NC(=O)N[C@@H]21)NCc1cn(CCCCCCCCN2[C@@H]3[C@H](CO)[C@@H](O)[C@H](O)[C@@H]32)nn1 (stereo partly drawn) [ABP 6]
a: 4.99
